The measurements presented in this section are drawn from paper PMC11313435.

Known ORAC of a selection of compounds
Test: ORAC assay (oxygen radical absorbance capacity, ORAC-FL)
Conditions: radical scavenging against peroxyl radicals; mean ± SD of three experiments
Entry rule: numbers only, all in mol TE/mol Compound.

COMPOUND_SMILES: CCC1(CC)C=CC(=O)c2c(O)c(C)cc(O)c21
QUANTITY_UNIT: mol TE/mol Compound
ORAC: 5.9

COMPOUND_SMILES: Cc1c(C)c(O)c2c(c1O)C(=O)C=CC2(C)C
QUANTITY_UNIT: mol TE/mol Compound
ORAC: 1.05

In: Returns the measured ORAC for the input compound. Input: "Cc1cc(O)c2c(c1O)C(C)(C)C=CC2=O"
Out: 5.5

In: Could you tell me which ORAC is on file for "CCC1(CC)C=CC(=O)c2c(O)ccc(O)c21" ?
Out: 7.0

In: Requested field: ORAC. Item: "CCC1(CC)C=CC(=O)c2c(O)cc(C)c(O)c21"
Out: 7.2
